biological target: Glycoprotein 42 (Epstein-Barr virus (strain AG876)) (UniProt Q1HVG2); assay: EBV glycoprotein 42 binding blockers – biochemical, uHTS, fluorescence polarization, primary screen (AID 1085); conditions: Fluorescence polarization binding assay, mP read-out; tested at 21.74 µM
Sequence (Q1HVG2 whole entry, looked up): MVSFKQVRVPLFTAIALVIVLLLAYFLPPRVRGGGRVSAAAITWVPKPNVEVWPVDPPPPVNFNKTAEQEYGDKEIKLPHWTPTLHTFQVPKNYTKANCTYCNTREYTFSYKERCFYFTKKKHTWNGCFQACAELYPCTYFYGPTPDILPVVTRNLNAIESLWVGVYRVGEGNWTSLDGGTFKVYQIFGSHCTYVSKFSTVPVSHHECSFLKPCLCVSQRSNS
Screen size: about 220,000 compounds; about 930 (0.42%) were called active. Rule as the data show it: active = inhibition above about 50%; inactive = the rest. Only a selection was taken, and actives are over-represented in it overall.
// one of active, inactive, no free text

// below: answered molecules
molecule | measuredTarget | assignedCategory
Brc1ccc(-c2csc(N/N=C/c3cccnc3)n2)cc1 | Glycoprotein 42 (Epstein-Barr virus (strain AG876)) (UniProt Q1HVG2) | inactive
CCN(CC)S(=O)(=O)c1ccc(N2CCOCC2)c(NC(=O)C2COc3ccccc3O2)c1 (stereo unspecified) | Glycoprotein 42 (Epstein-Barr virus (strain AG876)) (UniProt Q1HVG2) | inactive
COc1ccc(N(CCC#N)S(=O)(=O)c2ccc(Cl)cc2)cc1 | Glycoprotein 42 (Epstein-Barr virus (strain AG876)) (UniProt Q1HVG2) | inactive

Given O=c1cc(CO)oc(C(Nc2cccc([N+](=O)[O-])c2)c2ccccn2)c1O (stereo unspecified) , state the outcome it received in this test.
inactive

Outcome? O=C(Nc1ccc(Cl)cc1)C1c2cccc[n+]2CC(=O)N1Cc1ccc2c(c1)OCO2 (stereo unspecified)
inactive

# fetch the recorded call for CCN(c1ccc(NC(=O)COC(=O)CCc2nc3ccccc3n2-c2ccccc2)cc1)C(C)C here
inactive

* * *

target: Glycoprotein 42 (Epstein-Barr virus (strain AG876)); test: EBV glycoprotein 42 binding blockers – biochemical, uHTS, fluorescence polarization, primary screen (AID 1085); details: Fluorescence polarization binding assay, mP read-out; tested at 21.74 µM
The campaign covered roughly 220,000 compounds. About 930 (0.42%) were called active. Rule as the data show it: active = inhibition above about 50%; inactive = the rest. Many of the other results were omitted from the sample, so actives are more common in it than they were.
Respond only with the outcome that fits, drawn from 1 for active, -1 for inactive

compound | measuredTarget | assignedCategory
O=C(Nc1ccc2c(c1)OCCO2)c1ccoc1 | Glycoprotein 42 (Epstein-Barr virus (strain AG876)) | -1
N#Cc1cccc(Nc2c3c(nc4ccccc24)CCCC3)c1 | Glycoprotein 42 (Epstein-Barr virus (strain AG876)) | -1
Cc1c(C(=O)N2CCCc3ccccc32)sc2nc(-c3ccccc3)cn12 | Glycoprotein 42 (Epstein-Barr virus (strain AG876)) | -1
CCNc1nc(N)nc(-c2cc(Cl)ccc2OC)n1 | Glycoprotein 42 (Epstein-Barr virus (strain AG876)) | -1
CCOC(=O)N1CCN(Cc2nc(Cc3cccc(C(F)(F)F)c3)no2)CC1 | Glycoprotein 42 (Epstein-Barr virus (strain AG876)) | -1

Recorded test outcome, item Cc1cc2nc3c(=O)n(Cc4ccccc4)c(=O)[nH]c3nc2cc1N
1

Answer briefly: the call reported for Cn1c(=O)n(C)c2cc(/C=N/NC(=O)c3cccc(Br)c3)ccc21 in this assay.
-1

What is the recorded call for this compound in the test? Cc1cc(N2CCN(S(=O)(=O)c3ccc(C)c(C)c3)CC2)c2ccccc2n1
-1

# fetch the recorded call for COC(=O)c1sc(=S)n(-c2ccccc2)c1N here
-1

Outcome logged for O=C(Oc1c(-c2ccco2)oc2ccccc2c1=O)c1cccnc1 in this assay:
-1

Lab log entry: CCCNc1c(N)c(=O)c1=O — outcome as called in the assay?
-1

Can you look up the reported call for O=C(NCc1ccc2c(c1)OCO2)c1ccc2c(c1)C(=O)N(CC1CCCO1)C2=O (stereo not given) for me?
-1

What outcome does the record of this test show for Cn1cnc([N+](=O)[O-])c1Sc1ccccc1 ?
-1

Which outcome did this test record for the compound CSc1cc(C)n(-c2ccccc2C)c(=S)c1C(C)=O ?
-1

For CCN(CC)S(=O)(=O)c1ccc(Cl)c(C(=O)NC(C)C(c2cccs2)N2CCCC2)c1 (stereo not given) , what call appears in the results of this test?
-1

Test call, this compound: Cc1ccc(S(=O)(=O)C(C#N)c2nc3ccccc3nc2N2CCCC2)cc1C (stereo not given)
1

Recorded test outcome, item CSCC[C@H](NC(=O)NC1CCCC1)C(=O)O
-1

* * *

target: Glycoprotein 42 (Epstein-Barr virus (strain AG876)); test: EBV glycoprotein 42 binding blockers – biochemical, uHTS, fluorescence polarization, primary screen (AID 1085); settings: Fluorescence polarization binding assay, mP read-out; hits give high values; tested at 21.74 µM
Screen size: about 220,000 compounds; about 930 (0.42%) were called active. Only a selection was taken, and actives are over-represented in it overall.
measuredMetric: inhibition (%)
Lab book: enter the figure in %, no units written.

Reference set (2 entries):
compound | readingUnit | inhibition
Cc1occc1C(=O)N1CCCc2ccccc21 | % | -1.51
COc1ccc(/C(O)=C2/C(=O)C(=O)N(CC3CCCO3)C2c2ccc(OC)c(OC)c2)cc1 (stereo not drawn) | % | -16.4

Consider now this further compound.
Record Cc1cccc(N)c1SC1CCCCC1O (stereo not drawn) , field inhibition: -8.15
